STUDY_TARGET: Hexokinase HKDC1 (Homo sapiens) (UniProt Q2TB90)
Sequence (Q2TB90 whole entry, looked up): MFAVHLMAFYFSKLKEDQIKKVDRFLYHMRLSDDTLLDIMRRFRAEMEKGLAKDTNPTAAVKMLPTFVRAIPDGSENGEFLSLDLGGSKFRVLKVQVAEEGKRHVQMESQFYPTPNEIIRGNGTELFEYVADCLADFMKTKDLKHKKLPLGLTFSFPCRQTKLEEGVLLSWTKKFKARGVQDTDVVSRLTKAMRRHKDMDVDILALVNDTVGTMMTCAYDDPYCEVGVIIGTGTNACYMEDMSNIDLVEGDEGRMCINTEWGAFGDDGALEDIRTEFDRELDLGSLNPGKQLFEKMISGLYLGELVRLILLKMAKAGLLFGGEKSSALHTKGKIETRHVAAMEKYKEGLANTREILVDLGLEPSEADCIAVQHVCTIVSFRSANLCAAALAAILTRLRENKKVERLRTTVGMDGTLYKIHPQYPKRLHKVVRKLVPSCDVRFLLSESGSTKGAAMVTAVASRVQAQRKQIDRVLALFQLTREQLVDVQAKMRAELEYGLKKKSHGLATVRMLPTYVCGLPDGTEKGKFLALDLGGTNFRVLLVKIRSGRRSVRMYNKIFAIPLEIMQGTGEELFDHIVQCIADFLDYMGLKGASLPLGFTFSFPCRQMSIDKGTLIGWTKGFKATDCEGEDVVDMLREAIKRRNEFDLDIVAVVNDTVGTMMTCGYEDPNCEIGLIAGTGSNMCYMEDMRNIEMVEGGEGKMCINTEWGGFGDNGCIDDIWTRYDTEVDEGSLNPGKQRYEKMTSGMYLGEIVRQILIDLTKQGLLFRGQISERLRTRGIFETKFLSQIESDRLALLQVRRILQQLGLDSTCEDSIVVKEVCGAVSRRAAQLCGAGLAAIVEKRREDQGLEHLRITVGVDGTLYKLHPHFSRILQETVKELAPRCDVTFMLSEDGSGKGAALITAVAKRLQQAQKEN
PROTOCOL_DESCRIPTION: HKDC1 hexokinase inhibitors, confirmation, biochemical, single concentration (AID 504710)
TEST_SETTINGS: recombinant HKDC1, G6PDH/diaphorase/resazurin fluorescence; at 20 µM
Calls of active or inactive are those of the source.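 How the source made its calls: active means inhibition reaching about 16% in any single replicate (limit read from the data); inactive means the rest.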
Outcome (select one): 1 = active, 0 = inactive

Example results:
COMPOUND	ASSIGNED_CATEGORY
CCOC(=O)c1ccc(NC(=O)CSc2n[nH]c(-c3ccncc3)n2)cc1	1
O=C(O)c1cc(O)c2c(c1)[C@@H]([C@H]1c3cc(C(=O)O)cc(O)c3C(=O)c3c(O[C@@H]4O[C@H](CO)[C@@H](O)[C@H](O)[C@H]4O)cccc31)c1cccc(OC3O[C@H](CO)[C@@H](O)[C@H](O)[C@H]3O)c1C2=O (stereo partly drawn)	1

Then this compound:
What classification did "O=C(COC(=O)c1n[nH]c2ccccc12)c1cccc(Br)c1" end up with in this test?
0
